Recorded values, source patent US20100190845A1.

test system: CL1-5 lung cancer cells; test: cells; type: cell-based, human; conditions: Homo sapiens; CL1-5, highly metastatic lung cancer cells; read-out: IC50
property_name: IC50

Oc1ccc(C=Cc2cc(O)cc(O)c2)cc1: ~5 µM

----------
assay: Viable cell number counting using trypan blue; format: cell-based; conditions: human; IMR-90 normal lung cells, same time points; read-out: cell viability rate
As shown below, each of these molecules has a reported viability value.
property_name: viability

CC[C@H]1OC2(C)C(OC(C)=O)[C@@]1(C)OC(/C=C/C=C/C=C/c1oc(=O)cc(OC)c1C)[C@@H]2O (stereo partly drawn): ≥ 60%
Oc1ccc(C=Cc2cc(O)cc(O)c2)cc1: ≤ 60%
Oc1cc(O)cc(/C=C/c2ccc(O)c(O)c2)c1: 60%
